Origin of values: patent US20250214977A1

Please provide measured pIC50 for the entries that follow.
tested on: Phosphorylation of STAT6 in human PBMC (CD19+ B cells); experiment: Phosphorylated STAT6 (pSTAT6) flow cytometry assay in human PBMC, IL-4 stimulated; format: cell-based; details: compound 1 hour, 1 ng/ml IL-4 for 15 minutes, read-out: STAT6 IL4 pSTAT6 assay in PBMC: Average IC50
pIC50: −log10 of the molar value.

So what's the measured pIC50 for this one? CN(C)C(=O)c1cc2cc(C3CCCN(C(=O)CCn4ccnn4)C3)ccc2o1 (stereo not drawn) [Example I-305]
< 4.00

So what's the measured pIC50 for this one? CN(C)C(=O)c1cc2cc(C3=CCCN(C(=O)CN4CCc5ccccc5C4)C3)ccc2o1 [Example I-296]
< 4.00

So what's the measured pIC50 for this one? CN(C)C(=O)c1cc2cc(C3=CCCN(C(=O)Cc4ccc5c(c4)CN(C(=O)OC(C)(C)C)CC5)C3)ccc2o1 [Example I-259]
< 4.00

So what's the measured pIC50 for this one? Cc1cc(CC(=O)N2CCC=C(c3ccc4cc(C(=O)N(C)C)[nH]c4c3)C2)on1 [Example I-133]
< 4.00

So what's the measured pIC50 for this one? CN(C)C(=O)c1cc2ccc(C3=CCCN(C(=O)COc4ccc(C(=O)O)cc4)C3)cc2[nH]1 [Example I-67]
4.00 to 5.00

So what's the measured pIC50 for this one? CN(C)C(=O)c1cc2cc(C3=CCCN(C(=O)CCc4nccc5ccccc45)C3)ccc2o1 [Example I-206]
< 4.00

So what's the measured pIC50 for this one? CN(C)C(=O)c1cc2ccc(C3=CCCN(C(=O)CCN4CCOC4=O)C3)cc2[nH]1 [Example I-134]
< 4.00

So what's the measured pIC50 for this one? CN(C)C(=O)c1cc2cc(C3=CCCN(C(=O)CCc4ccc5ccccc5c4)C3)ccc2o1 [Example I-266]
< 4.00

So what's the measured pIC50 for this one? O=C(CCn1ccnn1)N1CCC=C(c2ccc3cc(-c4ccccn4)[nH]c3c2)C1 [Example I-119]
< 4.00

So what's the measured pIC50 for this one? CN(C)C(=O)c1cc2ccc(C3=CCCN(C(=O)C4CC4F)C3)cc2[nH]1 (stereo not drawn) [Example I-322]
4.00 to 5.00

So what's the measured pIC50 for this one? CN(C)C(=O)c1cc2cc(C3=CCCN(C(=O)CCc4ccccn4)C3)ccc2o1 [Example I-268]
< 4.00

So what's the measured pIC50 for this one? Cc1c(S(C)(=O)=O)ccc(C(=O)N2CCC=C(c3ccc4cc(C(=O)N(C)C)[nH]c4c3)C2)c1Cl [Example I-138]
< 4.00

So what's the measured pIC50 for this one? Cc1cc(Cl)c(S(C)(=O)=O)cc1C(=O)N1CCC=C(c2ccc3cc(C(=O)N(C)C)[nH]c3c2)C1 [Example I-74]
4.00 to 5.00

So what's the measured pIC50 for this one? CN(C)C(=O)c1cc2cc(C3=CCCN(C(=O)Cc4nc5ccccc5o4)C3)ccc2o1 [Example I-292]
< 4.00

So what's the measured pIC50 for this one? CN(C)C(=O)c1cc2cc(C3=CCCN(C(=O)CCn4ccnn4)C3)cnc2[nH]1 [Example I-222]
4.00 to 5.00
